Just for reference, patent EP4772193A1 is where these values come from.

Let's look at some binders and their measured pEC50.
# system_name: T1, recombinant human soluble gpNMB (recombinant human gpNMB-FLAG-His) (human, UniProt Q14956 23-498)
# T1 sequence: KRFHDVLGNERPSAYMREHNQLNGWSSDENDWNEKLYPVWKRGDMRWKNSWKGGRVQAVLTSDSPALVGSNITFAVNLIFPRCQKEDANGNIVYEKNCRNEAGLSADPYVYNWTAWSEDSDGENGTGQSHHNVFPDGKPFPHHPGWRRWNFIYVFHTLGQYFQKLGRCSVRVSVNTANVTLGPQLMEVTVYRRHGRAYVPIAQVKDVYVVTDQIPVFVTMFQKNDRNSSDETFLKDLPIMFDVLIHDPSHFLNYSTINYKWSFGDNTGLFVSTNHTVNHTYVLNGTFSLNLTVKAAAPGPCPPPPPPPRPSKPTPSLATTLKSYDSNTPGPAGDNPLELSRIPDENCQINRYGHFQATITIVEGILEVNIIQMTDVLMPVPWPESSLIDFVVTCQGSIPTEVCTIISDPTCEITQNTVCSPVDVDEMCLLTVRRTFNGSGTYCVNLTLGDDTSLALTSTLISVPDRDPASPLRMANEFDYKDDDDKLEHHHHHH
# test_summary: antigen ELISA
Scale explanation: pEC50 corresponds to minus log10 of a concentration expressed in moles per litre.

Some entries whose results are on file:
[[record]]
binder = "hGPN18-2_H2L3 VH Y61A (antibody, V domains shown) VH: QVQLVQSGPGLVQPTQTLTLTCSFSGFSLSTSVMGVGWIRQPSGKGLEWLADIWWDDDKDANPSLKSRLTISKDTSKNQVVLTMTNMDTVDTATYYCARTYYSNYEYYGMDYWGQGTLVTVSS VL: DIVMTQSPDSLAVSLGERATINCRSSQTIILSNGNTYLEWYQQKPGQPPKLLIYKVSNRFSGVPDRFSGSGSGTDFTLTISSLQAEDVAVYYCFQGSHVPFTFGSGTKLEIKR"
experimental_value = 8.12

[[record]]
binder = "hGPN18-2_H2L3 VH N104A (antibody, V domains shown) VH: QVQLVQSGPGLVQPTQTLTLTCSFSGFSLSTSVMGVGWIRQPSGKGLEWLADIWWDDDKDYNPSLKSRLTISKDTSKNQVVLTMTNMDTVDTATYYCARTYYSAYEYYGMDYWGQGTLVTVSS VL: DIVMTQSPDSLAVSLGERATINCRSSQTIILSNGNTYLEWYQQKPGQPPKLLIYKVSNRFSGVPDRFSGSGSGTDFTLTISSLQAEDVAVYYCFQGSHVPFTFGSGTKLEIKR"
experimental_value = 8.25


Please look up its pEC50: hGPN18-2_H2L3 VH M110A (antibody, V domains shown) VH: QVQLVQSGPGLVQPTQTLTLTCSFSGFSLSTSVMGVGWIRQPSGKGLEWLADIWWDDDKDYNPSLKSRLTISKDTSKNQVVLTMTNMDTVDTATYYCARTYYSNYEYYGADYWGQGTLVTVSS VL: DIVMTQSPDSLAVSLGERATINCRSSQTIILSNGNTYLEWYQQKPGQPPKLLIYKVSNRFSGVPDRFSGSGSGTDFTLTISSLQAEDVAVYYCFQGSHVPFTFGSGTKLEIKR
7.63
